# Test system: pentobarbital-anesthetized dog
# experimental details: In Vivo Myocardial Inotropic Activity in Anesthetized Dog (CVAD)
# Design: species or system dog (adult mongrel)
# condition description: Canis lupus familiaris, iv, 3.10 mg/kg IV; read-out: Percent Change Heart Rate
Reported change in vivo at 3.1 mg/kg values for a set of compounds

input smiles: Cc1nn(C)c2c(=O)[nH]c(Cc3ccccc3)nc12
change in vivo at 3.1 mg/kg [%]: 14

input smiles: Cc1ccc(-c2nc3c(C)nn(C)c3c(=O)[nH]2)cc1
change in vivo at 3.1 mg/kg [%]: 10

input smiles: Cc1nn(C)c2c(=O)[nH]c(-c3ccc(Cl)c(Cl)c3)nc12
change in vivo at 3.1 mg/kg [%]: 12

input smiles: Cc1nn(C)c2c(=O)[nH]c(-c3ccccc3)nc12
change in vivo at 3.1 mg/kg [%]: 37

input smiles: Cc1nn(C)c2c(=O)[nH]c(-c3ccc([N+](=O)[O-])cc3)nc12
change in vivo at 3.1 mg/kg [%]: 1

input smiles: COc1ccccc1-c1nc2c(C)nn(C)c2c(=O)[nH]1
change in vivo at 3.1 mg/kg [%]: 27

input smiles: Cc1nn(C)c2c(=O)[nH]c(-c3ccncc3)nc12
change in vivo at 3.1 mg/kg [%]: 49

----------
# System: pentobarbital-anesthetized dog
# experimental details: In Vivo Myocardial Inotropic Activity in Anesthetized Dog (CVAD)
# Design: species or system dog (adult mongrel)
# condition description: Canis lupus familiaris, iv, 3.10 mg/kg IV; read-out: Percent Change Heart Rate
Label met when change in vivo at 3.1 mg/kg is strictly below 20%; at or above that, label not met.

compound: Cc1nn(C)c2c(=O)[nH]c(-c3ccc(N)cc3)nc12 [Example 11]
cat: met

compound: CCn1nc(C)c2nc(-c3ccncc3)[nH]c(=O)c21 [Example 3]
cat: met

compound: Cc1nn(C)c2c(=O)[nH]c(-c3cccc([N+](=O)[O-])c3)nc12 [Example 13]
cat: met

compound: CCn1nc(C)c2nc(-c3ccccc3)[nH]c(=O)c21 [Example 5]
cat: not met

compound: Cc1nn(C)c2c(=O)[nH]c(-c3cccnc3)nc12 [Example 4]
cat: met

----------
# System: Type 1 Phosphodiesterase
# experimental details: Phosphodiesterase (PDE) Inhibition, Type 1 Phosphodiesterase
# Format: biochemical, bovine (coronary arteries)
# condition description: Type 1 PDE, at 10^-5 M, substrate 3H-cAMP 1.0 μM

compound: COc1ccc(-c2nc3c(C)nn(C)c3c(=O)[nH]2)cc1OC [Example 16]
% Inhibition of hydrolysis of 3H-cAMP: 10%

compound: Cc1nn(C)c2c(=O)[nH]c(-c3ccc(Cl)c(Cl)c3)nc12 [Example 15]
% Inhibition of hydrolysis of 3H-cAMP: 5%

compound: Cc1nn(C)c2c(=O)[nH]c(-c3ccc(Cl)cc3[N+](=O)[O-])nc12 [Example 18]
% Inhibition of hydrolysis of 3H-cAMP: 7%

compound: Cc1nn(C)c2c(=O)[nH]c(-c3cccc(N)c3)nc12 [Example 12]
% Inhibition of hydrolysis of 3H-cAMP: 6%

compound: Cc1nn(C)c2c(=O)[nH]c(-c3ccc(Cl)cc3)nc12 [Example 7]
% Inhibition of hydrolysis of 3H-cAMP: 7%

compound: COc1ccc(-c2nc3c(C)nn(C)c3c(=O)[nH]2)c(OC)c1 [Example 17]
% Inhibition of hydrolysis of 3H-cAMP: 15%

compound: Cc1nn(C)c2c(=O)[nH]c(-c3ccc(N)cc3)nc12 [Example 11]
% Inhibition of hydrolysis of 3H-cAMP: 19%

compound: CCn1nc(C)c2nc(-c3ccccc3)[nH]c(=O)c21 [Example 5]
% Inhibition of hydrolysis of 3H-cAMP: 29%
